Item-by-item account of clearance at 24 h
Experiment: in vivo
Conditions: BALB/c, mouse, iv, 1 mg/kg
Only the number, expressed in mL/min/kg, is required.

{"Molecule smiles": "O=C1NCc2c(-c3cnc4cc(F)ccn34)ccc(Nc3ccc4c(n3)CN(CCN3CC[C@@H](F)C3)C43CCOCC3)c21", "clearance at 24 h / mL/min/kg": 28}

Then this compound:
Ask: Could you share which clearance at 24 h value was measured for CN(C)Cc1nc(Nc2ccc(-c3cnc4cc(F)ccn34)c3c2C(=O)NC3)ccc1C1CCOCC1 ?
Reply: 138

====

Experiment: in vivo
Conditions: BALB/c, mouse, iv, 1 mg/kg
Endpoint: bioavailability at 24 h (%)
Only the number, expressed in %, is required.

Ask: Could you share which bioavailability at 24 h value was measured for O=C1NCc2c(-c3cnc4cc(F)ccn34)ccc(Nc3ccc4c(n3)CN(CCN3CC[C@@H](F)C3)C43CCOCC3)c21 ?
Reply: 50

====

Assay: Volume of distribution in BALB/c mouse at 1 mg/kg, iv measured upto 24 hrs by LC-MS/MS method
Type: ADME, organism-based
Conditions: in vivo
Endpoint: Vd (L/kg)
Only the number, expressed in L/kg, is required.

Ask: Could you share which Vd value was measured for CN(C)Cc1nc(Nc2ccc(-c3cnc4cc(F)ccn34)c3c2C(=O)NC3)ccc1C1CCOCC1 ?
Reply: 5

====

Test: in vivo
Conditions: BALB/c, mouse, po, 10 mg/kg
Item-by-item account of half-life at 24 h
Only the number, expressed in h, is required.

{"Molecule smiles": "CN(C)Cc1nc(Nc2ccc(-c3cnc4cc(F)ccn34)c3c2C(=O)NC3)ccc1C1CCOCC1", "Unit info": "h", "half-life at 24 h": 3.7}

Then this molecule:
Ask: Could you share which half-life at 24 h value was measured for O=C1NCc2c(-c3cnc4cc(F)ccn34)ccc(Nc3ccc4c(n3)CN(CCN3CC[C@@H](F)C3)C43CCOCC3)c21 ?
Reply: 1.4

====

Experiment: in vivo
Conditions: beagle, dog, po, 2 mg/kg
Endpoint: half-life at 24 h (h)
Only the number, expressed in h, is required.

Ask: Could you share which half-life at 24 h value was measured for CN(C)Cc1nc(Nc2ccc(-c3cnc4cc(F)ccn34)c3c2C(=O)NC3)ccc1C1CCOCC1 ?
Reply: 1.5

====

Experiment: in vivo
Settings: Sprague-Dawley, rat, iv, 1 mg/kg
Item-by-item account of half-life at 24 h
Only the number, expressed in h, is required.

{"Compound": "COC1CCC2(CC1)c1ccc(Nc3ccc(-c4cnc5cc(F)ccn45)c4c3C(=O)NC4)nc1CN2C (configuration not stated)", "Unit info": "h", "half-life at 24 h": 1}

Then this compound:
Ask: Could you share which half-life at 24 h value was measured for O=C1NCc2c(-c3cnc4cc(F)ccn34)ccc(Nc3ccc4c(n3)CN(CCN3CC[C@@H](F)C3)C43CCOCC3)c21 ?
Reply: 4.1

====

Assay: Clearance in Beagle dog at 1 mg/kg, iv measured upto 24 hrs by LC-MS/MS method
Type: ADME, organism-based, Canis lupus familiaris
Settings: in vivo
Endpoint: clearance (mL/min/kg)
Only the number, expressed in mL/min/kg, is required.

Ask: Could you share which clearance value was measured for CN(C)Cc1nc(Nc2ccc(-c3cnc4cc(F)ccn34)c3c2C(=O)NC3)ccc1C1CCOCC1 ?
Reply: 108
